The reported measurements were obtained from patent US20220298235A1.

Each record here notes measured kon.
Molecular target: T1, human p40-His (human, UniProt P29460 23-328)
T1 construct: Made by Akeso Biopharma; construct limits and tag not described; also called human IL-12/IL-23 p40 protein domain; human IL-12/IL-23 p40; not shown: His tag
T1 sequence (looked up): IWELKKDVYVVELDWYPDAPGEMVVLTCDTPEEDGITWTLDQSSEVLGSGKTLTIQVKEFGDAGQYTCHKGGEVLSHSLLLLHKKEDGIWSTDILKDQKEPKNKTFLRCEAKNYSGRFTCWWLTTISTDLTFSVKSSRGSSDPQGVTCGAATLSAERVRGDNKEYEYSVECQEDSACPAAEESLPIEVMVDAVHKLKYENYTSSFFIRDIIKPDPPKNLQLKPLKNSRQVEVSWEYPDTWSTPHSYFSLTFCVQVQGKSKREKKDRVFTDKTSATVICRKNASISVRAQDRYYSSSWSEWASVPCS
Assay: BLI (Fortebio), p40-His on HIS1K sensor, antibody 5-0.31 nM, 37 °C, 1:1 fit
Description: The sample dilution buffer for H5L9, H5L10, H5L11, H5L12, H5L14, H8L15, Ab123FR1 and ustekinumab was PBS (0.02% Tween-20, 0.1% BSA, pH 7.4). p40-His was immobilized on a HIS1K (manufacturer: Fortebio, Cat. No.: 18-5120) sensor at a concentration of 1 μg/mL for 40 s. […] The data were analyzed by 1:1 model fitting to obtain affinity constants.
endpoint_label: kon (M⁻¹ s⁻¹)

1) H5L10 (antibody, human IgG1, kappa, V domains shown, human IgG1 / kappa constant regions; also called humanized antibody H5L10) VH: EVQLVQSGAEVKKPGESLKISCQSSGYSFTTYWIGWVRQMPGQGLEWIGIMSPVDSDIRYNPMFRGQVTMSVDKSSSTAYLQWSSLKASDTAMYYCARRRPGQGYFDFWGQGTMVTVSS VL: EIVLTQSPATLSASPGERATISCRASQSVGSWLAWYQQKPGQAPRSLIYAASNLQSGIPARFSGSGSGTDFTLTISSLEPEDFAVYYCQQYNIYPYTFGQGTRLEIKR = 3.58e+06
2) H5L12 (antibody, human IgG1, kappa, V domains shown, human IgG1 / kappa constant regions; also called humanized antibody H5L12) VH: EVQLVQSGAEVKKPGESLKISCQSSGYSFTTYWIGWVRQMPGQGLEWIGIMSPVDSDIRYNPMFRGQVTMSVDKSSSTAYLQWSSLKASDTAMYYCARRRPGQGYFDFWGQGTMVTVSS VL: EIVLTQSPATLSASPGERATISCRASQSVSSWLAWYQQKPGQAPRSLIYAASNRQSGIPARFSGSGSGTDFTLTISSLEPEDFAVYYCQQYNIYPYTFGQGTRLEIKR = 3.84e+06
3) H5L14 (antibody, human IgG1, kappa, V domains shown, human IgG1 / kappa constant regions; also called humanized antibody H5L14) VH: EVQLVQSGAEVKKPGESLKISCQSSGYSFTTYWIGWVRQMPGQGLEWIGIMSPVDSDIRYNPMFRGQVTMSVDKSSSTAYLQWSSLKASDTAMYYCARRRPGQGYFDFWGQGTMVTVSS VL: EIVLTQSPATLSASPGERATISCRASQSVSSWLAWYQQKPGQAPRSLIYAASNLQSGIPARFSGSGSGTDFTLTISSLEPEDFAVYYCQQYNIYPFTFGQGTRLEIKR = 2.94e+06
4) H5L11 (antibody, human IgG1, kappa, V domains shown, human IgG1 / kappa constant regions; also called humanized antibody H5L11) VH: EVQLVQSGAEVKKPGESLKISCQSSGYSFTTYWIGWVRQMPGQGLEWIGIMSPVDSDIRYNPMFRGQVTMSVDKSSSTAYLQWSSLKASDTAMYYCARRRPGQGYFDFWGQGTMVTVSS VL: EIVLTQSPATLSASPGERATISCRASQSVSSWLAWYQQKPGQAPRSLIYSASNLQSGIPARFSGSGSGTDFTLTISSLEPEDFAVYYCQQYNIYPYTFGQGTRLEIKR = 3.15e+06
5) H8L15 (antibody, human IgG1, kappa, V domains shown, human IgG1 (P01857) / kappa (P01834) constant regions; also called anti-human IL-12/IL-23 p40 antibody H8L15; H8L15H1L1) VH: EVQLVQSGAEVKKPGESLKISCQSSGYTFTSYWIGWVRQMPGQGLEWIGIMSPVDSDIRYNPMFRGQVTMSVDKSSSTAYLQWSSLKASDTAMYYCARRRPGQGYFDFWGQGTMVTVSS VL: EIVLTQSPATLSASPGERATISCRASQSVGTWVAWYQQKPGQAPRSLIYAASNLQSGIPARFSGSGSGTDFTLTISSLEPEDFAVYYCQQYNIYPYTFGQGTRLEIKR = 2.95e+06
6) ustekinumab (antibody, V domains shown) VH: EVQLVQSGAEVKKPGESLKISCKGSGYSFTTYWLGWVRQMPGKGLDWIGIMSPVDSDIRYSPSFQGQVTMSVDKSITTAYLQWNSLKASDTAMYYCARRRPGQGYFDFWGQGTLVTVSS VL: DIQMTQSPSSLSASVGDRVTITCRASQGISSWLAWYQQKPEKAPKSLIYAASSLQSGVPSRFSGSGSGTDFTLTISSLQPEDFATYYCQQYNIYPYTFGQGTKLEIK = 1.99e+06
7) H5L9 (antibody, human IgG1, kappa, V domains shown, human IgG1 (P01857) / kappa (P01834) constant regions; also called humanized antibody H5L9) VH: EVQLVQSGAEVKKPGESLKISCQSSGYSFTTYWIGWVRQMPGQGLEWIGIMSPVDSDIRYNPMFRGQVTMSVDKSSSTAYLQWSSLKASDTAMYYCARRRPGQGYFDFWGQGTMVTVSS VL: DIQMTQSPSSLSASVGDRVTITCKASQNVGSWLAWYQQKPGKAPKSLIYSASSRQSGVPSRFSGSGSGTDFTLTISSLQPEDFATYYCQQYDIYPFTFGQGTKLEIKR = 1.08e+07
